Source: patent EP1278521B1

Test system: MDA-MB-231 cells
Assay: Cell proliferation of MDA-MB-231 breast carcinoma cells
Assay type: cell-based, human
Details: Homo sapiens, MDA-MB-231
pIC50: −log10 of the molar value.
property_name: pIC50

record_smiles: O=C(O)c1cc(/N=N/c2ccc(S(=O)(=O)Nc3ccccn3)cc2)ccc1O
tgt: MDA-MB-231 cells
observed_result: 3.52

* * *

Below: a set of entries, each annotated with reported IC50.
Tested on: Nb2-SFJCD1 rat lymphoma cells
Experiment: Culture growth inhibition assay in Nb2-SFJCD1 cultures
Assay type: cell-based
Details: Rattus norvegicus; 45 h at 37°C, Fischer's medium containing 10.0% horse gelding serum; read-out: IC50 (mM) Average ± S.D.

compound: CC(C)Cc1ccc(C(C)C(=O)O)cc1 (stereo not shown) [Ibuprofen]
tgt: Nb2-SFJCD1 rat lymphoma cells
unit_info: mM
IC50: 0.43
//
compound: NC(=O)c1ccccc1O [Salicylamide]
tgt: Nb2-SFJCD1 rat lymphoma cells
unit_info: mM
IC50: 1.34
//
compound: CN1C(C(=O)Nc2ccccn2)=C(O)c2ccccc2S1(=O)=O [Piroxicam]
tgt: Nb2-SFJCD1 rat lymphoma cells
unit_info: mM
IC50: 0.3
